Test: Solubility
Type: physicochemical
Conditions: organic solvent or mixture; MEK (Methyl ethyl ketone); read-out: Solubility
metric: solubility

solubility recorded for this compound, CCCCCCOC(=O)NC(=N)c1ccc(CNC(=O)[C@@H]2CCCN2C(=O)[C@@H](CC(C)C)NCC(=O)OCC)cc1 [Form I] , is ~1600 µg/mL

* * *

Assay: Solubility
Type: physicochemical
Conditions: organic solvent or mixture; ACN (Acetonitrile); read-out: Solubility
metric: solubility

Form field solubility, entry CCCCCCOC(=O)NC(=N)c1ccc(CNC(=O)[C@@H]2CCCN2C(=O)[C@@H](CC(C)C)NCC(=O)OCC)cc1 [Form I] : > 250 mg/mL

* * *

Experiment: Solubility
Type: physicochemical
Conditions: organic solvent or mixture; AC (Acetic acid); read-out: Solubility
metric: solubility

CCCCCCOC(=O)NC(=N)c1ccc(CNC(=O)[C@@H]2CCCN2C(=O)[C@@H](CC(C)C)NCC(=O)OCC)cc1 [Form I] yielded solubility of > 250 mg/mL

* * *

Assay: Solubility
Assay type: physicochemical
Settings: organic solvent or mixture; DMSO (Dimethyl sulfoxide); read-out: Solubility
metric: solubility

Lab note: CCCCCCOC(=O)NC(=N)c1ccc(CNC(=O)[C@@H]2CCCN2C(=O)[C@@H](CC(C)C)NCC(=O)OCC)cc1 [Form I] gave solubility of > 250 mg/mL

* * *

Experiment: Solubility
Format: physicochemical
Conditions: organic solvent or mixture; Tol (Toluene); read-out: Solubility
metric: solubility

Briefly, solubility measured for CCCCCCOC(=O)NC(=N)c1ccc(CNC(=O)[C@@H]2CCCN2C(=O)[C@@H](CC(C)C)NCC(=O)OCC)cc1 [Form I] : < 300 µg/mL

* * *

Test: Partition coefficient
Assay type: physicochemical
metric: logP

The value of logP measured for the compound CCCCCCOC(=O)NC(=N)c1ccc(CNC(=O)[C@@H]2CCCN2C(=O)[C@@H](CC(C)C)NCC(=O)OCC)cc1 [Form I] turned out to be > 3.38

* * *

Assay: Solubility
Format: physicochemical
Conditions: water; read-out: Solubility
metric: solubility

solubility in this record for CCCCCCOC(=O)NC(=N)c1ccc(CNC(=O)[C@@H]2CCCN2C(=O)[C@@H](CC(C)C)NCC(=O)OCC)cc1 [Form I] : > 250 mg/mL

* * *

Test: Solubility
Format: physicochemical
Settings: BA, organic solvent or mixture; read-out: Solubility
metric: solubility

For record CCCCCCOC(=O)NC(=N)c1ccc(CNC(=O)[C@@H]2CCCN2C(=O)[C@@H](CC(C)C)NCC(=O)OCC)cc1 [Form I] the listed solubility is < 300 µg/mL

* * *

Assay: Solubility
Format: physicochemical
Settings: organic solvent or mixture; Hept (n-Heptane); read-out: Solubility
metric: solubility

Form field solubility, entry CCCCCCOC(=O)NC(=N)c1ccc(CNC(=O)[C@@H]2CCCN2C(=O)[C@@H](CC(C)C)NCC(=O)OCC)cc1 [Form I] : < 300 µg/mL

* * *

Assay: Solubility
Type: physicochemical
Details: organic solvent or mixture; EtOH (Ethanol); read-out: Solubility
metric: solubility

Form: compound = CCCCCCOC(=O)NC(=N)c1ccc(CNC(=O)[C@@H]2CCCN2C(=O)[C@@H](CC(C)C)NCC(=O)OCC)cc1 [Form I] ; solubility = > 250 mg/mL
